Value source: the Deep4Chem optical property database

assay_method_text: photoluminescence quantum yield (fraction); solvent given as SMILES
experimental_conditions: in ClC(Cl)Cl
measured_property: photoluminescence quantum yield
In your answer, state the number alone without any accompanying words.

Worked examples, 3 compounds total:
item_smiles=CCc1ccc(-c2nc(-c3ccc(-n4c5ccccc5c5ccccc54)cc3)cc(-c3ccc(-n4c5ccccc5c5ccccc54)cc3)n2)cc1 measured_property="photoluminescence quantum yield" assay_result=0.58
item_smiles=COc1ccc(-n2nc(C(=O)N3CCCC3)c(N3CCCC3)n2)cc1 measured_property="photoluminescence quantum yield" assay_result=0.64
item_smiles=C(#Cc1ccc(C#Cc2ccc(C#Cc3ccccc3)cc2)cc1)c1ccccc1 measured_property="photoluminescence quantum yield" assay_result=0.61

Moving on to another compound below.
Exercise: Reported photoluminescence quantum yield, compound COc1ccc(-c2oc3cccc4c5c(-c6ccc(OC)c(OC)c6)/c(=N/S(=O)(=O)C(F)(F)F)oc6cccc(c2c34)c65)cc1OC : ____
Key: 0.1

----------
assay_method_text: photoluminescence quantum yield (fraction); solvent given as SMILES
experimental_conditions: in CO
measured_property: photoluminescence quantum yield
In your answer, state the number alone without any accompanying words.

compound=CCOC(=O)C1=CNC=C(C(=O)OCC)C1c1ccccc1 assay_result=0.58
compound="O=P1(c2ccccc2)C2=C(c3ccccc31)[Si](c1ccccc1)(c1ccccc1)c1cc(N(c3ccccc3)c3ccccc3)ccc12 (stereo unspecified)" assay_result=0.17
compound="COc1ccc(/C=C/C=C/C2=NC3C(=O)NC(N)=NC3N2[C@H]2C[C@H](O)[C@@H](CO)O2)cc1 (stereo partly specified)" assay_result=0.56

Exercise: Reported photoluminescence quantum yield, compound Nc1ccc2cn[nH]c2c1 : ____
Key: 0.31

Exercise: Reported photoluminescence quantum yield, compound COc1ccc(-c2nc(-c3ccc(C#N)cc3)[nH]c2-c2ccc(OC)cc2)cc1 : ____
Key: 0.6

Exercise: Reported photoluminescence quantum yield, compound Cc1cc(=O)oc2cc3c4ccccc4c4ccccc4c3cc12 : ____
Key: 0.09

Exercise: Reported photoluminescence quantum yield, compound CN(C)c1ccc2nc(-c3ccc(C=O)cc3)sc2c1 : ____
Key: 0.1

Exercise: Reported photoluminescence quantum yield, compound CCn1c(=O)nc2n(C)c3cc(C)ccc3nc-2c1=O : ____
Key: 0.11

----------
assay_method_text: photoluminescence quantum yield (fraction); solvent given as SMILES
experimental_conditions: in c1ccc2c(c1)c1ccccc1n2-c1ccc(-c2ccc(-n3c4ccccc4c4ccccc43)cc2)cc1
measured_property: photoluminescence quantum yield
In your answer, state the number alone without any accompanying words.

Worked examples, 3 compounds total:
item_smiles=O=C1c2ccc(N(c3ccc(-c4ccccc4)cc3)c3ccc(-c4ccccc4)cc3)cc2C(=O)c2ccc(N(c3ccc(-c4ccccc4)cc3)c3ccc(-c4ccccc4)cc3)cc21 assay_result=0.42
item_smiles=CC1(C)c2ccccc2N(c2ccc(C(=O)/C=C(\O)c3ccc(N4c5ccccc5C(C)(C)c5ccccc54)cc3)cc2)c2ccccc21 assay_result=0.86
item_smiles=O=C1c2ccc(-c3ccc(N(c4ccccc4)c4ccccc4)cc3)cc2C(=O)c2ccc(-c3ccc(N(c4ccccc4)c4ccccc4)cc3)cc21 assay_result=0.8

Moving on to another compound below.
Exercise: Reported photoluminescence quantum yield, compound CC1(C)c2ccccc2N(c2ccccc2)c2ccc(-c3ccc(-c4ccc5c(c4)C(C)(C)c4ccccc4N5c4ccccc4)c4nsnc34)cc21 : ____
Key: 0.92

----------
assay_method_text: photoluminescence quantum yield (fraction); solvent given as SMILES
experimental_conditions: in ClCCl
measured_property: photoluminescence quantum yield
In your answer, state the number alone without any accompanying words.

Worked examples, 4 compounds total:
item_smiles=CCOC(=O)C1=C(C(=O)OC)N2CCc3cc(OC)c(OC)cc3C2=C[C@H](c2ccc(Cl)cc2)C12c1ccccc1-c1ccccc12 assay_result=0.00105
item_smiles=c1ccc(N2c3ccccc3Sc3cc(-c4cccc5nc6ccccc6cc45)ccc32)cc1 assay_result=0.0635
item_smiles=O=c1c2cc(F)ccc2nc2n1[B-](F)(F)[n+]1ccccc1-2 assay_result=0.99
item_smiles=COc1ccc(-c2csc(/C(C#N)=N\Nc3ccc(C#N)cc3)n2)cc1 assay_result=0.002

Exercise: Reported photoluminescence quantum yield, compound COc1cccc(C2=C3C=C(/C=C/C(=O)OC(C)(C)C)C=[N+]3[B-](F)(F)n3cccc32)c1 : ____
Key: 0.09

----------
assay_method_text: photoluminescence quantum yield (fraction); solvent given as SMILES
experimental_conditions: in CC#N
Each entry below carries its recorded photoluminescence quantum yield.
In your answer, state the number alone without any accompanying words.

Worked examples, 3 molecules total:
item_smiles=Cn1ccc(-c2nc3ccccc3nc2/C=C/N2CCCC2)c1 assay_result=0.33
item_smiles=N#C/C(=C\c1ccc([N+](=O)[O-])cc1)c1nc(-c2ccccc2)cs1 assay_result=0.051
item_smiles=N#CC1=c2c3cccc4cccc(c43)n2[B-](F)(F)[n+]2ccccc21 assay_result=0.96

Exercise: Reported photoluminescence quantum yield, molecule CN(C)c1ccc(C2=Nc3scc(-c4ccc([N+](=O)[O-])cc4)[n+]3[B-](F)(F)O2)cc1 : ____
Key: 0.001

Exercise: Reported photoluminescence quantum yield, molecule COc1cc(OC)cc(C2=[O+][B-](F)(F)OC(c3ccc4cc(OC)ccc4c3)=C2)c1 : ____
Key: 0.22

----------
assay_method_text: photoluminescence quantum yield (fraction); solvent given as SMILES
experimental_conditions: in CS(C)=O
# photoluminescence quantum yield >= 0.1 gives yes (1), anything below gives no (0)

Exercise: Please check the record Cc1c(OCC(=O)O)cc2c3c([nH]c2c1C)C(=O)CCC3 and state if its photoluminescence quantum yield is at or above 0.1.
Key: no (0)

Exercise: Please check the record N#Cc1c(/C=C/c2ccc(N(c3ccccc3)c3ccccc3)cc2)cc(-c2ccccc2)cc1N1CCCCC1 and state if its photoluminescence quantum yield is at or above 0.1.
Key: yes (1)

Exercise: Please check the record CCCCCCCCCCCCC1(CCCCCCCCCCCC)c2cc(-c3ccc(C=C4C(=O)c5ccccc5C4=O)cc3)ccc2-c2ccc(-c3ccc(C=C4C(=O)c5ccccc5C4=O)cc3)cc21 and state if its photoluminescence quantum yield is at or above 0.1.
Key: yes (1)

Exercise: Please check the record COc1cccc2cc(-c3cc4cccc(OC)c4oc3=O)oc12 and state if its photoluminescence quantum yield is at or above 0.1.
Key: yes (1)

Exercise: Please check the record NS(=O)(=O)c1ccc(N2N=C(c3ccc(O)cc3)CC2c2ccc(Cl)cc2)cc1 (configuration not stated) and state if its photoluminescence quantum yield is at or above 0.1.
Key: yes (1)

Exercise: Please check the record CCOC(=O)c1ccccc1-c1c2ccc(=O)cc-2oc2cc(OC(=O)[C@H](CSCc3ccc(C)cc3)NC(=O)OC(C)(C)C)ccc12 and state if its photoluminescence quantum yield is at or above 0.1.
Key: no (0)

----------
assay_method_text: photoluminescence quantum yield (fraction); solvent given as SMILES
experimental_conditions: in ClCCCl
measured_property: photoluminescence quantum yield

Worked examples, 3 compounds total:
item_smiles=Cc1ccc2nc3[nH]c(=O)[nH]c(=O)c3nc2c1 assay_result=0.034
item_smiles=CN(C)c1cc(C#N)c(N(C)C)c(C#N)c1 assay_result=0.52
item_smiles=N#Cc1ccc2nc3[nH]c(=O)[nH]c(=O)c3nc2c1 assay_result=0.022

Moving on to another compound below.
Exercise: Reported photoluminescence quantum yield, compound CCn1c(=O)nc2n(C)c3cc(C)ccc3nc-2c1=O : ____
Key: 0.12

----------
Each entry below carries its recorded photoluminescence quantum yield.
assay_method_text: photoluminescence quantum yield (fraction); solvent given as SMILES
experimental_conditions: in ClCCl
In your answer, state the number alone without any accompanying words.

compound=O=c1c2cccc3cccc(c32)c2nc3ccccc3n12 measured_property="photoluminescence quantum yield" assay_result=0.71
compound=COc1ccc2cc(-c3cc(-c4ccccc4)c4n3[B-](F)(F)[N+]3=C5C=NC=CN5[B-](F)(F)[N+]3=C4)ccc2c1 measured_property="photoluminescence quantum yield" assay_result=0.43
compound=CCOC(=O)c1ccc(O)c(-c2[nH]c(=O)n3c2-c2ccccc2C3=O)c1 measured_property="photoluminescence quantum yield" assay_result=0.59

Exercise: Reported photoluminescence quantum yield, compound CC(C)(C)OC(=O)CN1CCN(c2ccc3c(-c4ccc(I)cc4)c4ccc(=[N+]5CCN(CC(=O)OC(C)(C)C)CC5)cc-4oc3c2)CC1 : ____
Key: 0.007

Exercise: Reported photoluminescence quantum yield, compound O=c1c2cc(Cl)ccc2nc2n1[B-](F)(F)[n+]1ccccc1-2 : ____
Key: 0.99

Exercise: Reported photoluminescence quantum yield, compound C1=Cc2ccc(N(c3ccccc3)c3ccccc3)cc2C2(c3cc(N(c4ccccc4)c4ccccc4)ccc31)c1ccccc1-c1ccccc12 : ____
Key: 0.9

Exercise: Reported photoluminescence quantum yield, compound F[B-]1(F)OC(c2ccc(C(F)(F)F)cc2)=Cc2cc(Cl)nc[n+]21 : ____
Key: 0.01

Exercise: Reported photoluminescence quantum yield, compound CCCCCCCCCCCCN1C(=O)c2c(c3ccc4cc(-c5ccc(F)cc5)c(OC)cc4c3c3c2ccc2cc(-c4ccc(F)cc4)c(OC)cc23)C1=O : ____
Key: 0.153

Exercise: Reported photoluminescence quantum yield, compound CN(C)c1ccc(-c2cc(-c3ccc(C#N)cc3)nn2C)cc1 : ____
Key: 0.21
